tested on: E. faecalis ATCC 29212; test: MIC, NCCLS broth microdilution assay; assay type: cell-based, Enterococcus faecalis; details: E. faecalis ATCC 29212
Measurement label: Minimum Inhibitory Concentration (MIC)

Molecule	Meas value
CCN(CC)CCCNc1snc(C(=O)Nc2ccc(-c3cc4ccccc4o3)cc2)c1Cl [Compound A-5]	+++ (MIC ≦ 4)
O=C(Nc1ccc(-c2cc3ccccc3o2)cc1)c1nsc(NCCN2CCNCC2)c1Cl [Compound A-1]	+++ (MIC ≦ 4)
NCCCCNc1ncccc1C(=O)Nc1ccc(-c2cc3ccccc3o2)cc1 [Compound A-18]	++ (4 < MIC < 12)
NCCCCNc1ncccc1C(=O)Nc1ccc(-c2cc3ccccc3s2)nc1 [Compound A-75]	+++ (MIC ≦ 4)
CN(CCCN)CCCNc1snc(C(=O)Nc2ccc(-c3cc4ccccc4o3)cc2)c1Cl [Compound A-8]	+++ (MIC ≦ 4)
O=C(Nc1ccc(-c2cc3ccccc3o2)cc1)c1cccnc1N1CCNCC1 [Compound A-20]	+ (12 ≦ MIC ≦ 32)
NCCN1CCN(c2ncccc2C(=O)Nc2ccc(-c3cc4ccccc4o3)cc2)CC1 [Compound A-17]	+ (12 ≦ MIC ≦ 32)
CN(CCCN)CCCNc1ncccc1C(=O)Nc1ccc(-c2cc3ccccc3s2)nc1 [Compound A-76]	++ (4 < MIC < 12)
NCCCCNc1snc(C(=O)Nc2ccc(-c3cc4ccccc4s3)nc2)c1Cl [Compound A-68]	+++ (MIC ≦ 4)
O=C(Nc1ccc(-c2cc3ccccc3o2)nc1)c1ccc(Cl)cc1NCCN1CCNCC1 [Compound A-42]	++ (4 < MIC < 12)
